Data credit: patent US7056679

Molecular target: T1, antibody raised against ETAG
T1 construct: read-out of display; also called E-tag antibody; E tag antibody
Test: phage ELISA, 405 nm; anti-E-tag antibody coated
We begin with a simple list: items and their reported ETAG (OD).
Field format: number, assumed OD, no unit text.

Recorded ETAG (OD), per entry:
Binder: DGI-2-40F-3-B5 (not shown: phage gene III coat protein (pCANTAB5E)) peptide: RSRSSSGASGSMLRVQNHMVLGSWMVRQPMGSMTPFHGHGAAAGAPVPYPDPLEPRP
Result Unit: OD
ETAG (OD): 9.2
//
Binder: RWSLPAYLCRFVSQASCNSRAAAGAPVPYPDPLEPRP (not shown: phage gene III coat protein (pCANTAB5E)) [DGI-2-20R-3-C12]
Result Unit: OD
ETAG (OD): 14.6
//
Binder: PAMGHCMQVLGPVLEGRSRDQVGRAAAGAPVPYPDPLEPRP (not shown: phage gene III coat protein (pCANTAB5E)) [DGI-2-20R-4-G6]
Result Unit: OD
ETAG (OD): 11.5
//
Binder: DGI-2-40F-3-B10 (not shown: phage gene III coat protein (pCANTAB5E)) peptide: MQAASTLSTYMGAIRMGYPILHWDRGGVQRVDPGLYRGRVAAAGAPVPYPDPLEPRP
Result Unit: OD
ETAG (OD): 4.8
//
Binder: VAFGEQIRVAMAGTLWQRWRAAAGAPVPYPDPLEPRP (not shown: phage gene III coat protein (pCANTAB5E)) [DGI-2-20R-3-D5]
Result Unit: OD
ETAG (OD): 8.5

Per the record, GLRACDTYLGFCVGARRIDDAAAGAPVPYPDPLEPRP (not shown: phage gene III coat protein (pCANTAB5E)) [DGI-2-20F-3-B102] has ETAG (OD) of 18

ETAG (OD) for DGI-2-40F-3-B11 (not shown: phage gene III coat protein (pCANTAB5E)) peptide: LAPMFLQNQVRTWAASRRPLPAGPSNARCETGSLSPWVPCAAAGAPVPYPDPLEPRP is 7.9

Just so you know, measured ETAG (OD) for DGI-2-40F-3-C52 (not shown: phage gene III coat protein (pCANTAB5E)) peptide: GLLFTSSPYQCFWVHCTLTMSPLSVLGDLSSTIGRMRASRAAAGAPVPYPDPLEPRP came out at 4.6
